Cited source for all entries: the RNAGym collection of RNA variant scans (doi:10.1073/pnas.2313332121)

B1: TPR t1 (parent)
chain: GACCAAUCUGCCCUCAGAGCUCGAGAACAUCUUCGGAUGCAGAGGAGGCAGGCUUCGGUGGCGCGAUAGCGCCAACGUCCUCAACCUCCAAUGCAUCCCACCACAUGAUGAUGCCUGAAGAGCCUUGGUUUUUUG

Variants of: B1
TEST METHOD NOTES: polymerase ribozyme fitness, log enrichment relative to wild type (log ratio); higher = more active; in vitro selection for triplet polymerase activity
PARAMETER MEASURED: polymerase ribozyme fitness (log ratio)

VARIANT ID: G60A C79U U96A C115U C123G U132A
PARAMETER MEASURED: polymerase ribozyme fitness (log ratio)
OBSERVED: -1.19
--
VARIANT ID: U7G G17U G61U
PARAMETER MEASURED: polymerase ribozyme fitness (log ratio)
OBSERVED: -0.326
--
VARIANT ID: A5U U7A C40G U55G C56U G60A
PARAMETER MEASURED: polymerase ribozyme fitness (log ratio)
OBSERVED: -3.04
--
VARIANT ID: C8G C56G G63C U126C
PARAMETER MEASURED: polymerase ribozyme fitness (log ratio)
OBSERVED: -3.33
--
VARIANT ID: C3U A84U
PARAMETER MEASURED: polymerase ribozyme fitness (log ratio)
OBSERVED: -0.78
--
VARIANT ID: C3U U9G G19U G58C
PARAMETER MEASURED: polymerase ribozyme fitness (log ratio)
OBSERVED: -3.13
--
VARIANT ID: A27U A46G
PARAMETER MEASURED: polymerase ribozyme fitness (log ratio)
OBSERVED: -2.59
--
VARIANT ID: A43G C62U C73U A84C U92A A118U U132C G135C
PARAMETER MEASURED: polymerase ribozyme fitness (log ratio)
OBSERVED: -2.69
--
VARIANT ID: U33C G39U A111C A121C
PARAMETER MEASURED: polymerase ribozyme fitness (log ratio)
OBSERVED: -5.95
--
VARIANT ID: C97G C115G
PARAMETER MEASURED: polymerase ribozyme fitness (log ratio)
OBSERVED: -3.69
--
VARIANT ID: A24U C28G A84C G120U
PARAMETER MEASURED: polymerase ribozyme fitness (log ratio)
OBSERVED: -7.73
--
VARIANT ID: G39U C49U C56U
PARAMETER MEASURED: polymerase ribozyme fitness (log ratio)
OBSERVED: -1.53
--
VARIANT ID: U55C G61U A90G U112C A119U
PARAMETER MEASURED: polymerase ribozyme fitness (log ratio)
OBSERVED: 0.196
--
VARIANT ID: G36A C70U C76A C85U
PARAMETER MEASURED: polymerase ribozyme fitness (log ratio)
OBSERVED: -3.99
--
VARIANT ID: C15A C20A G107A A121G
PARAMETER MEASURED: polymerase ribozyme fitness (log ratio)
OBSERVED: -5.21
--
VARIANT ID: A6U A41C C79G G113C U133A
PARAMETER MEASURED: polymerase ribozyme fitness (log ratio)
OBSERVED: -4.49
--
VARIANT ID: G58C C80G C88A
PARAMETER MEASURED: polymerase ribozyme fitness (log ratio)
OBSERVED: -6.49
--
VARIANT ID: U112G
PARAMETER MEASURED: polymerase ribozyme fitness (log ratio)
OBSERVED: 0.661
--
VARIANT ID: G36A C82U C123G
PARAMETER MEASURED: polymerase ribozyme fitness (log ratio)
OBSERVED: 0.9
--
VARIANT ID: C13G A26U G47A C82U
PARAMETER MEASURED: polymerase ribozyme fitness (log ratio)
OBSERVED: -5.11
--
VARIANT ID: A5G G44U G52A
PARAMETER MEASURED: polymerase ribozyme fitness (log ratio)
OBSERVED: -2
--
VARIANT ID: C53A U78C C104A
PARAMETER MEASURED: polymerase ribozyme fitness (log ratio)
OBSERVED: -1.25
--
VARIANT ID: A18C G52C U96C
PARAMETER MEASURED: polymerase ribozyme fitness (log ratio)
OBSERVED: -3.84
--
VARIANT ID: C13U U21A A27G G61C C99U
PARAMETER MEASURED: polymerase ribozyme fitness (log ratio)
OBSERVED: -6.29
--
VARIANT ID: C80U U133G
PARAMETER MEASURED: polymerase ribozyme fitness (log ratio)
OBSERVED: -0.514
--
VARIANT ID: G58C C102A
PARAMETER MEASURED: polymerase ribozyme fitness (log ratio)
OBSERVED: -2.66
--
VARIANT ID: C13G C104U
PARAMETER MEASURED: polymerase ribozyme fitness (log ratio)
OBSERVED: -0.77
--
VARIANT ID: C3G G120A
PARAMETER MEASURED: polymerase ribozyme fitness (log ratio)
OBSERVED: -1.23
--
VARIANT ID: C11U G113A
PARAMETER MEASURED: polymerase ribozyme fitness (log ratio)
OBSERVED: -1.33
--
VARIANT ID: C124A U131A
PARAMETER MEASURED: polymerase ribozyme fitness (log ratio)
OBSERVED: 1.79
--
VARIANT ID: U33G G60U C85G
PARAMETER MEASURED: polymerase ribozyme fitness (log ratio)
OBSERVED: -7.61
--
VARIANT ID: C62G G113C
PARAMETER MEASURED: polymerase ribozyme fitness (log ratio)
OBSERVED: -4.48
--
VARIANT ID: C70A C89U
PARAMETER MEASURED: polymerase ribozyme fitness (log ratio)
OBSERVED: -2.29
--
VARIANT ID: G77U A91U U132A
PARAMETER MEASURED: polymerase ribozyme fitness (log ratio)
OBSERVED: -2.14
--
VARIANT ID: U9G G65C G69C
PARAMETER MEASURED: polymerase ribozyme fitness (log ratio)
OBSERVED: -5.37
--
VARIANT ID: C8G G48U G60U C85U U92A
PARAMETER MEASURED: polymerase ribozyme fitness (log ratio)
OBSERVED: -3.06
--
VARIANT ID: G35A C73A
PARAMETER MEASURED: polymerase ribozyme fitness (log ratio)
OBSERVED: -3.7
--
VARIANT ID: A16U C62U U81G A121U
PARAMETER MEASURED: polymerase ribozyme fitness (log ratio)
OBSERVED: -2.2
--
VARIANT ID: A16G G71U C123U
PARAMETER MEASURED: polymerase ribozyme fitness (log ratio)
OBSERVED: -0.364
--
VARIANT ID: U87G A121C
PARAMETER MEASURED: polymerase ribozyme fitness (log ratio)
OBSERVED: 1.82
--
VARIANT ID: U54A G57U U78A A95U G120U
PARAMETER MEASURED: polymerase ribozyme fitness (log ratio)
OBSERVED: -0.728
--
VARIANT ID: A27G C104A
PARAMETER MEASURED: polymerase ribozyme fitness (log ratio)
OBSERVED: -2.31
--
VARIANT ID: A5U G45A
PARAMETER MEASURED: polymerase ribozyme fitness (log ratio)
OBSERVED: -1.11
--
VARIANT ID: A105U U109C
PARAMETER MEASURED: polymerase ribozyme fitness (log ratio)
OBSERVED: -5.35
--
VARIANT ID: A29G C53G A95G
PARAMETER MEASURED: polymerase ribozyme fitness (log ratio)
OBSERVED: -2.04
--
VARIANT ID: G61A G69A
PARAMETER MEASURED: polymerase ribozyme fitness (log ratio)
OBSERVED: -4.21
